Tested on: OVCAR-5
TEST: NCI tumour cell line growth inhibition, 48 h
Activity calls are given as the source filed them. Rule as the data show it: active = GI50 up to about 1.1 µM and inactive = higher.
OUTCOME_MEASURE: GI50

Illustrative cases are given below, each with its answer.
COC(C/C(=C/CO[Si](C(C)C)(C(C)C)C(C)C)C(=O)N(COCC[Si](C)(C)C)c1ccccc1I)OC | 32.4 µM (inactive)
COc1ccc(/N=N/c2c(-c3ccccc3)nn(C(=O)CC(=O)Nc3cccc(Cl)c3)c2-c2ccccc2)cc1 | 61.2 µM (inactive)
Cc1oc2c(C)c3oc(=O)cc(C)c3cc2c1CNC(=O)[C@@H]1OCCOCCOCCOCCOCCOC1C(=O)O (some centres undefined) | > 100 µM (inactive)

Below: the item to evaluate.
Recorded result, "CC(C)(C)N1C(=O)[N-]/[N+](=C(/C(c2ccccc2)=[N+]2/[N-]C(=O)N(C(C)(C)C)C2=O)c2ccccc2)C1=O" , GI50: > 100 µM (inactive)
